Reference source for all entries: ChEMBL document CHEMBL3885861

// LDH lookup, one value per entry
# Species: Rattus norvegicus
# method: Open TG-GATES - Regimen: Single
# Assay type: toxicity, organism-based, Sprague-Dawley
# Design: regimen Single, gender Male, age 6 weeks
# conditions_used: in vivo, po, 1000 mg/kg, 6 h, tissue Plasma, route gavage, dose level High

| compound | readout_unit | LDH |
| --- | --- | --- |
| Clc1ccccc1CN1CCc2sccc2C1 | IU/L | 196.2 |
| C[C@H](CS)C(=O)N1CCC[C@H]1C(=O)O | IU/L | 110.4 |
| O=C(O)c1cn(C2CC2)c2cc(N3CCNCC3)c(F)cc2c1=O | IU/L | 140.4 |
| CCc1cc(C(N)=S)ccn1 [ETHIONAMIDE] | IU/L | 119.2 |
| O=C(O)c1cc(/N=N/c2ccc(S(=O)(=O)Nc3ccccn3)cc2)ccc1O | IU/L | 207.8 |

----------
# Organism: Rattus norvegicus
# method: Open TG-GATES - Regimen: Single
# Format: toxicity, organism-based, Sprague-Dawley
# Set-up: regimen Single, gender Male, age 6 weeks
# conditions_used: in vivo, po, 100 mg/kg, 9 h, tissue Blood, route gavage, dose level Low

| compound | Plat / x10_4/uL |
| --- | --- |
| O=C(O)c1cc(/N=N/c2ccc(S(=O)(=O)Nc3ccccn3)cc2)ccc1O | 113 |
| Clc1ccccc1CN1CCc2sccc2C1 | 123.9 |
| CCc1cc(C(N)=S)ccn1 [ETHIONAMIDE] | 116.8 |
| C[C@H](CS)C(=O)N1CCC[C@H]1C(=O)O | 119.2 |
| O=C(O)c1cn(C2CC2)c2cc(N3CCNCC3)c(F)cc2c1=O | 100.5 |

----------
# Species: Rattus norvegicus
# method: Open TG-GATES - Regimen: Single
# Type: toxicity, organism-based, Sprague-Dawley
# Set-up: regimen Single, gender Male, age 6 weeks
# conditions_used: in vivo, po, 100 mg/kg, 6 h, tissue Plasma, route gavage, dose level Low
// gamma-GTP lookup, one value per entry
measured_parameter: gamma-GTP (IU/L)

| molecule | measured_parameter | assay_result |
| --- | --- | --- |
| O=C(O)c1cn(C2CC2)c2cc(N3CCNCC3)c(F)cc2c1=O [CIPROFLOXACIN] | gamma-GTP | 1 |
| Clc1ccccc1CN1CCc2sccc2C1 [TICLOPIDINE] | gamma-GTP | 0.8 |
| CCc1cc(C(N)=S)ccn1 [ETHIONAMIDE] | gamma-GTP | 1 |
| C[C@H](CS)C(=O)N1CCC[C@H]1C(=O)O [CAPTOPRIL] | gamma-GTP | 1.6 |
| O=C(O)c1cc(/N=N/c2ccc(S(=O)(=O)Nc3ccccn3)cc2)ccc1O [SULFASALAZINE] | gamma-GTP | 1.6 |

----------
# Species: Rattus norvegicus
# method: Open TG-GATES - Regimen: Single
# Format: toxicity, organism-based, Sprague-Dawley
# Parameters: regimen Single, gender Male, age 6 weeks
# conditions_used: in vivo, po, 0 mg/kg, 3 h, tissue Plasma, route gavage, dose level Control

| compound | TP, g/dL |
| --- | --- |
| C[C@H](CS)C(=O)N1CCC[C@H]1C(=O)O | 5.4 |
| O=C(O)c1cc(/N=N/c2ccc(S(=O)(=O)Nc3ccccn3)cc2)ccc1O | 5.5 |
| O=C(O)c1cn(C2CC2)c2cc(N3CCNCC3)c(F)cc2c1=O | 5.4 |
| Cn1c(=O)c2[nH]cnc2n(C)c1=O.O | 5.3 |
| COc1ccc(Cc2nccc3cc(OC)c(OC)cc23)cc1OC | 5.5 |
| CSc1ccc2c(c1)N(CCC1CCCCN1C)c1ccccc1S2 (configuration not stated) | 5.5 |
| Clc1ccccc1CN1CCc2sccc2C1 | 5.4 |
| NC(=O)N1c2ccccc2C=Cc2ccccc21 [CARBAMAZEPINE] | 5.4 |
| CC(=O)Oc1ccccc1C(=O)O | 5.5 |
| CCc1cc(C(N)=S)ccn1 [ETHIONAMIDE] | 5.4 |
| NC(=O)N/N=C/c1ccc([N+](=O)[O-])o1 | 5.2 |
| CN(C)CCC=C1c2ccccc2CCc2ccccc21 | 5.3 |
